Substrate: CC(=O)Oc1cccc2ccccc12
Assay: spectrophotometric esterase assay
Assay type: biochemical, Oleispira antarctica
Conditions: 0.4 M NaCl, 50 mM potassium Hepes pH 8.0, 20°C
outcome.measure: kcat/Km (M⁻¹ s⁻¹)
Give the number; M⁻¹ s⁻¹ is assumed, so skip it.

OLEI01171 (Oleispira antarctica; A224K) (protein) MSIENLSSNKSFGGWHKQYSHVSNTLNCAMRFAIYLPPQASTGAKVPVLYWLSGLTCSDENFMQKAGAQRLAAELGIAIVAPDTSPRGEGVADDEGYDLGQGAGFYVNATQAPWNRHYQMYDYVVNELPELIESMFPVSDKRAIAGHSMGGHGALTIALRNPERYQSVSAFSPINNPVNCPWGQKAFTAYLGKDTDTWREYDASLLMRAAKQYVPALVDQGEKDNFLAEQLKPEVLEAAASSNNYPLELRSHEGYDHSYYFIASFIEDHLRFHSNYLNA ... 4000
OLEI01171 (Oleispira antarctica; S59A) (protein) MSIENLSSNKSFGGWHKQYSHVSNTLNCAMRFAIYLPPQASTGAKVPVLYWLSGLTCADENFMQKAGAQRLAAELGIAIVAPDTSPRGEGVADDEGYDLGQGAGFYVNATQAPWNRHYQMYDYVVNELPELIESMFPVSDKRAIAGHSMGGHGALTIALRNPERYQSVSAFSPINNPVNCPWGQKAFTAYLGKDTDTWREYDASLLMRAAKQYVPALVDQGEADNFLAEQLKPEVLEAAASSNNYPLELRSHEGYDHSYYFIASFIEDHLRFHSNYLNA ... 2000
OLEI01171 (Oleispira antarctica; Y98A) (protein) MSIENLSSNKSFGGWHKQYSHVSNTLNCAMRFAIYLPPQASTGAKVPVLYWLSGLTCSDENFMQKAGAQRLAAELGIAIVAPDTSPRGEGVADDEGADLGQGAGFYVNATQAPWNRHYQMYDYVVNELPELIESMFPVSDKRAIAGHSMGGHGALTIALRNPERYQSVSAFSPINNPVNCPWGQKAFTAYLGKDTDTWREYDASLLMRAAKQYVPALVDQGEADNFLAEQLKPEVLEAAASSNNYPLELRSHEGYDHSYYFIASFIEDHLRFHSNYLNA ... 2000
OLEI01171 (Oleispira antarctica; N62A) (protein) MSIENLSSNKSFGGWHKQYSHVSNTLNCAMRFAIYLPPQASTGAKVPVLYWLSGLTCSDEAFMQKAGAQRLAAELGIAIVAPDTSPRGEGVADDEGYDLGQGAGFYVNATQAPWNRHYQMYDYVVNELPELIESMFPVSDKRAIAGHSMGGHGALTIALRNPERYQSVSAFSPINNPVNCPWGQKAFTAYLGKDTDTWREYDASLLMRAAKQYVPALVDQGEADNFLAEQLKPEVLEAAASSNNYPLELRSHEGYDHSYYFIASFIEDHLRFHSNYLNA ... 4000

Which measured kcat/Km value corresponds to OLEI01171 (Oleispira antarctica; S173A) (protein) MSIENLSSNKSFGGWHKQYSHVSNTLNCAMRFAIYLPPQASTGAKVPVLYWLSGLTCSDENFMQKAGAQRLAAELGIAIVAPDTSPRGEGVADDEGYDLGQGAGFYVNATQAPWNRHYQMYDYVVNELPELIESMFPVSDKRAIAGHSMGGHGALTIALRNPERYQSVSAFAPINNPVNCPWGQKAFTAYLGKDTDTWREYDASLLMRAAKQYVPALVDQGEADNFLAEQLKPEVLEAAASSNNYPLELRSHEGYDHSYYFIASFIEDHLRFHSNYLNA ?
9000

Follow-up entry: OLEI01171 (Oleispira antarctica; C58A) (protein) MSIENLSSNKSFGGWHKQYSHVSNTLNCAMRFAIYLPPQASTGAKVPVLYWLSGLTASDENFMQKAGAQRLAAELGIAIVAPDTSPRGEGVADDEGYDLGQGAGFYVNATQAPWNRHYQMYDYVVNELPELIESMFPVSDKRAIAGHSMGGHGALTIALRNPERYQSVSAFSPINNPVNCPWGQKAFTAYLGKDTDTWREYDASLLMRAAKQYVPALVDQGEADNFLAEQLKPEVLEAAASSNNYPLELRSHEGYDHSYYFIASFIEDHLRFHSNYLNA
5000

Follow-up entry: OLEI01171 (Oleispira antarctica; K66A) (protein) MSIENLSSNKSFGGWHKQYSHVSNTLNCAMRFAIYLPPQASTGAKVPVLYWLSGLTCSDENFMQAAGAQRLAAELGIAIVAPDTSPRGEGVADDEGYDLGQGAGFYVNATQAPWNRHYQMYDYVVNELPELIESMFPVSDKRAIAGHSMGGHGALTIALRNPERYQSVSAFSPINNPVNCPWGQKAFTAYLGKDTDTWREYDASLLMRAAKQYVPALVDQGEADNFLAEQLKPEVLEAAASSNNYPLELRSHEGYDHSYYFIASFIEDHLRFHSNYLNA
3000

Follow-up entry: OLEI01171 (Oleispira antarctica; N226K) (protein) MSIENLSSNKSFGGWHKQYSHVSNTLNCAMRFAIYLPPQASTGAKVPVLYWLSGLTCSDENFMQKAGAQRLAAELGIAIVAPDTSPRGEGVADDEGYDLGQGAGFYVNATQAPWNRHYQMYDYVVNELPELIESMFPVSDKRAIAGHSMGGHGALTIALRNPERYQSVSAFSPINNPVNCPWGQKAFTAYLGKDTDTWREYDASLLMRAAKQYVPALVDQGEADKFLAEQLKPEVLEAAASSNNYPLELRSHEGYDHSYYFIASFIEDHLRFHSNYLNA
8000

Follow-up entry: OLEI01171 (Oleispira antarctica; N226A) (protein) MSIENLSSNKSFGGWHKQYSHVSNTLNCAMRFAIYLPPQASTGAKVPVLYWLSGLTCSDENFMQKAGAQRLAAELGIAIVAPDTSPRGEGVADDEGYDLGQGAGFYVNATQAPWNRHYQMYDYVVNELPELIESMFPVSDKRAIAGHSMGGHGALTIALRNPERYQSVSAFSPINNPVNCPWGQKAFTAYLGKDTDTWREYDASLLMRAAKQYVPALVDQGEADAFLAEQLKPEVLEAAASSNNYPLELRSHEGYDHSYYFIASFIEDHLRFHSNYLNA
3000
